System Tested: BaF3 TELJAK3 cells (Homo sapiens, UniProt P52333)
Construct: fused on or other part: TEL (ETV6) N-terminal part, coding nucleotides 1-487, serves as the oligomerising partner; It is fused through a Sal I site to the JAK3 kinase domain and expressed from pTRE2 in BaF3 cells bearing pTET-off; P41212 (Transcription factor ETV6)
Sequence (P52333 whole entry, change not shown, the tested form may be a part): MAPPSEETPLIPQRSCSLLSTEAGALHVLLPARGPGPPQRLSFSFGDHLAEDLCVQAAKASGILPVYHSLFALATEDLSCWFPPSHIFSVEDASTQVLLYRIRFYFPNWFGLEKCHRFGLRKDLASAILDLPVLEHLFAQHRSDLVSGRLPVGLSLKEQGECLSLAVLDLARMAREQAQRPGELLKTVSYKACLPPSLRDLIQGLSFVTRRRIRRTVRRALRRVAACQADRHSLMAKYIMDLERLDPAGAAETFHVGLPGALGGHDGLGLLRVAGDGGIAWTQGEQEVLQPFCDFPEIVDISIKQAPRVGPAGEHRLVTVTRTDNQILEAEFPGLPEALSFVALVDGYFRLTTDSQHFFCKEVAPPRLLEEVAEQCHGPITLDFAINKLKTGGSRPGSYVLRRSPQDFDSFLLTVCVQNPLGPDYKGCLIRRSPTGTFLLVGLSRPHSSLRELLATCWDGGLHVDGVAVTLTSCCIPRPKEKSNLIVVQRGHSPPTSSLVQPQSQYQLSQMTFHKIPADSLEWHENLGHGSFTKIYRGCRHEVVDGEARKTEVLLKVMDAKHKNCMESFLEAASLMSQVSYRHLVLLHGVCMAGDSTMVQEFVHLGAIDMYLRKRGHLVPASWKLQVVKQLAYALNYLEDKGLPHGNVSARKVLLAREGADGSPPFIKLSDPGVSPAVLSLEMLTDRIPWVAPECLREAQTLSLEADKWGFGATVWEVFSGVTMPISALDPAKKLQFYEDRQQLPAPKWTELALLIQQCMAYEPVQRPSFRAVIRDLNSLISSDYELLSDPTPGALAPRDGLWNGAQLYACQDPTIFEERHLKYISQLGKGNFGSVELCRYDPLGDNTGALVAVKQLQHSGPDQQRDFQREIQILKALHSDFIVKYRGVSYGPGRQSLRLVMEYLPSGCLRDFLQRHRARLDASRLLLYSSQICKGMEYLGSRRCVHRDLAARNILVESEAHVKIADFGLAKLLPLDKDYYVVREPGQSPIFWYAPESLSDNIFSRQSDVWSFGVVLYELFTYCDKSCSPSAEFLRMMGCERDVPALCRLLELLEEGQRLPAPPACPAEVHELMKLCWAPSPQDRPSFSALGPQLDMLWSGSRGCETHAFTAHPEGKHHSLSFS
Measurement Notes: Cellular screening, BaF3 TEL:JAK3 cells, Alamar Blue
Format: cell-based
Condition Details: 40 hr, read-out: BafT_J3 IC50_nM
Measured Endpoint: GI50

[
  {
    "Compound": "N#Cc1ncn(Cc2ccc(Sc3ccnc(Nc4ccc(N5CCOCC5)cc4)n3)cc2)c1N",
    "System Tested": "BaF3 TELJAK3 cells (Homo sapiens, UniProt P52333)",
    "GI50": "< 5 µM"
  },
  {
    "Compound": "COc1ccc(Nc2nccc(Sc3ccc(NC(=O)CC#N)cc3)n2)cc1OC",
    "System Tested": "BaF3 TELJAK3 cells (Homo sapiens, UniProt P52333)",
    "GI50": "< 1 µM"
  },
  {
    "Compound": "C=CC(=O)Nc1ccc(Sc2ccnc(Nc3cccc(S(N)(=O)=O)c3)n2)cc1",
    "System Tested": "BaF3 TELJAK3 cells (Homo sapiens, UniProt P52333)",
    "GI50": "< 1 µM"
  },
  {
    "Compound": "Cc1cnc(Nc2ccc(N3CCOCC3)cc2)nc1Sc1ccc(N2C(=O)C=C(Br)C2=O)cc1",
    "System Tested": "BaF3 TELJAK3 cells (Homo sapiens, UniProt P52333)",
    "GI50": "< 20 µM"
  },
  {
    "Compound": "Cc1cnc(Nc2ccc(N3CCOCC3)cc2)nc1Sc1ccc(N2CCSCC2=O)cc1",
    "System Tested": "BaF3 TELJAK3 cells (Homo sapiens, UniProt P52333)",
    "GI50": "> 20 µM"
  }
]

Return reported GI50 values for all items listed beneath this line.
1. CCOC(=O)c1nccn1Cc1ccc(Sc2ccnc(Nc3ccc(N4CCOCC4)cc3)n2)cc1
2. C=CC(=O)Nc1ccc(Sc2ccnc(Nc3cccc(S(=O)(=O)N4CCOCC4)c3)n2)cc1
3. C=CC(=O)Nc1ccc(Sc2ccnc(Nc3cccc([N+](=O)[O-])c3)n2)cc1
4. C=CC(=O)Nc1ccc(Sc2nc(Nc3cccc(N4CCOCC4)c3)ncc2I)cc1
5. Cc1cnc(Nc2ccc(N3CCOCC3)cc2)nc1Sc1ccc(CC#N)cc1

A:
1: < 20 µM; 2: < 5 µM; 3: < 5 µM; 4: < 1 µM; 5: > 20 µM

###

System Tested: Flt 1(h) (Homo sapiens)
Construct: purchased Upstate Biotechnology (Dundee, UK), KinaseProfiler service
Sequence (P17948 27-1338): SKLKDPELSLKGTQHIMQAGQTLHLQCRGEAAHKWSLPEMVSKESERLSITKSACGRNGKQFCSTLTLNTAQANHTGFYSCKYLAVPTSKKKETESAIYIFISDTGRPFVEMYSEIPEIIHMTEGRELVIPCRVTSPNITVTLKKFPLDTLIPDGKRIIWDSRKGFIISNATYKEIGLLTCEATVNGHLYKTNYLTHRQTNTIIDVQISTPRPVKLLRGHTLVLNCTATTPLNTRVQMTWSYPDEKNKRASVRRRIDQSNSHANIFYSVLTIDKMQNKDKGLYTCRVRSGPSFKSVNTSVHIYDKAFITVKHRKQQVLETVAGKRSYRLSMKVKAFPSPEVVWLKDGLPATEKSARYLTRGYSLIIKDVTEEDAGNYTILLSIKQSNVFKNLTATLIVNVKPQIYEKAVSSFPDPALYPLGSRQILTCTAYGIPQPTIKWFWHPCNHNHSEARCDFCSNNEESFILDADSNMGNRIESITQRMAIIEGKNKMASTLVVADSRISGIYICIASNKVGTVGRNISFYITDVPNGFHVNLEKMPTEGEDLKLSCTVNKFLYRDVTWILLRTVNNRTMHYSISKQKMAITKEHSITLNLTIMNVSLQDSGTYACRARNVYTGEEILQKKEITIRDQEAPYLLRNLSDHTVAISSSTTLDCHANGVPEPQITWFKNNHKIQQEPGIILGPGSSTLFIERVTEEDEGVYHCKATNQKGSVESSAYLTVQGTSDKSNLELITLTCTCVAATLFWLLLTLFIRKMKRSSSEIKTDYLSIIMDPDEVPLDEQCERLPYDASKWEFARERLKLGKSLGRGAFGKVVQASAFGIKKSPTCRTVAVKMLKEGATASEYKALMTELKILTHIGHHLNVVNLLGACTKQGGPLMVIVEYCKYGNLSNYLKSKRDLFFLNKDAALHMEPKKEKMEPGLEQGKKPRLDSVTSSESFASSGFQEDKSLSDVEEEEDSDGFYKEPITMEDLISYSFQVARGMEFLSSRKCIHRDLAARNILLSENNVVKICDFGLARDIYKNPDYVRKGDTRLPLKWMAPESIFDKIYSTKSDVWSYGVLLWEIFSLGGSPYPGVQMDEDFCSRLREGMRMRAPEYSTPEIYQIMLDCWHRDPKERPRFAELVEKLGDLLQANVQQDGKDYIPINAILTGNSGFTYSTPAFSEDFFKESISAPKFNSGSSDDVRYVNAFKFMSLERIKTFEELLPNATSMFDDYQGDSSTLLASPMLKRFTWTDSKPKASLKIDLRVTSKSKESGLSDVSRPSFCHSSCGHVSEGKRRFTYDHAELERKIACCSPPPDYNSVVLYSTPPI
Measurement Notes: Upstate KinaseProfiler enzyme assay, Flt 1
Type: biochemical
Condition Details: 500 nM compound; read-out: Percent inhibition at 500 nM Flt 1(h)
Experimental: Further enzyme assays were conducted at Upstate Biotechnology (Dundee, UK) in the KinaseProfiler™ Assay system. The general protocol is as follows. All kinases are pre-diluted to a 10× working concentration prior to addition into the assay. The composition of the dilution buffer for the kinases is 20 mM MOPS pH 7.0, 1 mM EDTA, 0.1% β-mercaptoethanol, 0.01% Brij-35, 5% glycerol, 1 mg/ml BSA. All substrates are dissolved and diluted to working stocks in de-ionised water.
Assignment: determine reported inhibition at 0.5 µM for the given compounds.
One number for each entry, in %.

Take a look at these entries with their results.
[
  {
    "Compound": "C=CC(=O)Nc1ccc(Sc2nc(Nc3ccc(N4CCOCC4)cc3)ncc2C)cc1 [Compound 124]",
    "inhibition at 0.5 µM (%)": 100
  },
  {
    "Compound": "CC#CC(=O)Nc1ccc(Sc2ccnc(Nc3cccc(N4CCOCC4)c3)n2)cc1 [Compound 233]",
    "inhibition at 0.5 µM (%)": 99
  }
]

As a next step, examine the compound that follows.
Q: # get_value(readout='inhibition at 0.5 µM', item= C=CC(=O)Nc1ccc(Sc2nc(Nc3ccc(N4CCN(C)CC4)cc3)ncc2C)cc1 [Compound 239] )
A: 100
